- experimental system: ERα (Homo sapiens, UniProt P03372)
- Sequence (P03372 311-547 limits assumed): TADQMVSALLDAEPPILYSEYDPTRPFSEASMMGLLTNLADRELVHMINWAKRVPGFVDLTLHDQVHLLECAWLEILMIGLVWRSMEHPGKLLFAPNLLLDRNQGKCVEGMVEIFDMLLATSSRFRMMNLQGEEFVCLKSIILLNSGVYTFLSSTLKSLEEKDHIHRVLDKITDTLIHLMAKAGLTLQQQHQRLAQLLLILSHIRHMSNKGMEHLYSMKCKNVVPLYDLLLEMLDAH
- protocol text: Competition with [3H]-17β-estradiol for ERα ligand binding domain
- condition context: crude E. coli lysate expressing human ERα LBD (D, E, & F); 2 nM [3H]-17β-estradiol; 5-15 hours at room temperature
pIC50: −log10 of the molar value.
test readout: pIC50

{"compound": "Oc1ccc2nc(-c3ccc(O)c(F)c3)cc(-c3ccsc3)c2c1", "pIC50": 6.06}
{"compound": "Oc1ccc2nc(-c3ccc(O)c(F)c3)cc(C#Cc3ccccc3)c2c1", "pIC50": 4.92}

1. N#Cc1ccc(-c2cc(-c3ccc(O)c(F)c3)nc3c(Cl)cc(O)cc23)cc1
2. C#Cc1cc(-c2ccc(O)c(F)c2)nc2ccc(O)cc12 [Cpd 14b]
IN: Kindly compare 1 with 2 and tell me which has the lower pIC50 figure. Answer format: the label of the selected item.
OUT: 2
